// pKd lookup, one value per entry
Biological target: GORASP1, Q9BQQ3
Sequence (Q9BQQ3 1-208): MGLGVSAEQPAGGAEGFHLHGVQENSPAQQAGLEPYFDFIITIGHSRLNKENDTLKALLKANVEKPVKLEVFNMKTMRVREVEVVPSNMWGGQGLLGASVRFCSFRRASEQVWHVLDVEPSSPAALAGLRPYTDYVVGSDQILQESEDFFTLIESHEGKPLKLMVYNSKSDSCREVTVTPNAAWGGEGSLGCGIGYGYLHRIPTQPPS
Assay: holdup assay
Parameters: key: below the threshold = too weak to quantify, mostly under pKd 3.1 to 4
Details: plain residues with an end cap or a label only (N-terminal biotin on a linker: ado-ado)
Please reply with the value in numeric form only.

QGLAERISVL [PRKD2, Q9BZL6] | 4.08

Please give the measured pKd for this binder: QPCFNKLFPL [LPXN, O60711]
3.68

Ref: paper PMC9482650
